These measurements were taken from ChEMBL document CHEMBL1141179.

Measured target: Somatostatin receptor type 4 (Homo sapiens, UniProt P31391)
Sequence (P31391 whole entry): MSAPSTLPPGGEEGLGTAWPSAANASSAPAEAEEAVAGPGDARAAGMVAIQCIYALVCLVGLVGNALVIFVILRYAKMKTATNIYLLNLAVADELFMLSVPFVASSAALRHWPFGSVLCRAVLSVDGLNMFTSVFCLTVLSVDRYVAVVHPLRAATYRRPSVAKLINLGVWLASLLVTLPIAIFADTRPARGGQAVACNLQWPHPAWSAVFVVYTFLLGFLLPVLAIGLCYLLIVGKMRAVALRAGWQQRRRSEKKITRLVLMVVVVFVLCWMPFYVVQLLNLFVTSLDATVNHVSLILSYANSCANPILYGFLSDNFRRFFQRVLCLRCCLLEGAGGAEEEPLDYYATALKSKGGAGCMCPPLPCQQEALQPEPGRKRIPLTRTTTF
Assay notes: Inhibition of 125I-[Leu8,D-Trp22,Tyr25]SRIF-28 binding to human somatostatin receptor type 4
pIC50: −log10 of the molar value.

| Molecule smiles | pIC50 |
| --- | --- |
| CC(C)NCc1ccc(C[C@@H]2NC(=O)[C@@H](Cc3c[nH]c4ccccc34)NC(=O)[C@@H]3CCC(=O)NCCC(=O)NCCC[C@H](NC(=O)[C@H](Cc4ccccc4)NC(=O)[C@H]([C@@H](C)O)NC2=O)C(=O)N[C@@H](CO)C(=O)N[C@H](C(=O)O)CSSC[C@H](NC(=O)[C@@H](N)Cc2ccc(O)cc2)C(=O)N[C@@H](CCCCN)C(=O)N[C@@H](Cc2ccccc2)C(=O)N3)cc1 | < 6.00 |
| CC(C)NCc1ccc(C[C@@H]2NC(=O)[C@@H](Cc3c[nH]c4ccccc34)NC(=O)[C@H](Cc3ccccc3)NC(=O)[C@@H]3CCC(=O)NCCCC[C@H](NC(=O)[C@H](Cc4ccccc4)NC(=O)[C@H]([C@@H](C)O)NC2=O)C(=O)N[C@@H](CO)C(=O)N[C@H](C(=O)O)CSSC[C@H](NC(=O)[C@@H](N)Cc2ccc(O)cc2)C(=O)N[C@@H](CCCCN)C(=O)N3)cc1 | < 6.00 |

====

pIC50: −log10 of the molar value.
As a worked illustration, we turn to pIC50 data collected for Somatostatin receptor type 2 (Homo sapiens).

| Molecule smiles | pIC50 |
| --- | --- |
| C[C@@H](O)[C@@H]1NC(=O)[C@H](CCCCN)NC(=O)[C@@H](Cc2c[nH]c3ccccc23)NC(=O)[C@H](Cc2ccccc2)NC(=O)[C@@H](N)CSSC[C@@H](C(=O)O)NC(=O)[C@H](Cc2ccccc2)NC1=O | 6.27 |
| CC(C)NCc1ccc(C[C@@H]2NC(=O)[C@@H](Cc3c[nH]c4ccccc34)NC(=O)[C@H](Cc3ccccc3)NC(=O)[C@@H]3CCC(=O)NCC[C@H](NC(=O)[C@H](Cc4ccccc4)NC(=O)[C@H]([C@@H](C)O)NC2=O)C(=O)N[C@@H](CO)C(=O)N[C@H](C(=O)O)CSSC[C@H](NC(=O)[C@@H](N)Cc2ccc(O)cc2)C(=O)N[C@@H](CCCCN)C(=O)N3)cc1 | < 6.00 |
| CC(C)NCc1ccc(C[C@@H]2NC(=O)[C@@H](Cc3c[nH]c4ccccc34)NC(=O)[C@@H](NC(=O)[C@@H](N)Cc3ccccc3)CCC(=O)NCCCC[C@@H](C(=O)N[C@@H](CO)C(=O)O)NC(=O)[C@H](Cc3ccccc3)NC(=O)[C@H]([C@@H](C)O)NC2=O)cc1 | < 6.00 |
| NCCCC[C@@H]1NC(=O)[C@@H](Cc2c[nH]c3ccccc23)NC(=O)[C@H](Cc2ccccc2)NC(=O)[C@H](Cc2ccccc2)NC(=O)[C@@H](N)CSSC[C@@H](C(=O)O)NC(=O)[C@H](Cc2ccccc2)NC1=O | < 6.00 |

====

As a worked illustration, we turn to IC50 data collected for Somatostatin receptor type 2 (Homo sapiens).

| Molecule smiles | IC50 |
| --- | --- |
| C[C@@H](O)[C@@H]1NC(=O)[C@H](CCCCN)NC(=O)[C@@H](Cc2c[nH]c3ccccc23)NC(=O)[C@H](Cc2ccccc2)NC(=O)[C@H](Cc2ccccc2)NC(=O)[C@H](CC(N)=O)NC(=O)[C@@H](N)CSSC[C@@H](C(=O)O)NC(=O)[C@H](Cc2ccccc2)NC1=O | 0.095 µM |
| CC(C)NCc1ccc(C[C@@H]2NC(=O)[C@@H](Cc3c[nH]c4ccccc34)NC(=O)[C@H](Cc3ccccc3)NC(=O)[C@@H]3CCC(=O)NCCCC[C@H](NC(=O)[C@H]([C@@H](C)O)NC2=O)C(=O)N[C@@H]([C@@H](C)O)C(=O)N[C@@H](CO)C(=O)N[C@H](C(=O)O)CSSC[C@H](NC(=O)[C@@H](N)Cc2ccc(O)cc2)C(=O)N[C@@H](CCCCN)C(=O)N3)cc1 | > 1 µM |
| CC(C)NCc1ccc(C[C@@H]2NC(=O)[C@@H](Cc3c[nH]c4ccccc34)NC(=O)[C@@H]3CCC(=O)NCCCCCC[C@H](NC(=O)[C@H](Cc4ccccc4)NC(=O)[C@H]([C@@H](C)O)NC2=O)C(=O)N[C@@H](CO)C(=O)N[C@H](C(=O)O)CSSC[C@H](NC(=O)[C@@H](N)Cc2ccc(O)cc2)C(=O)N[C@@H](CCCCN)C(=O)N[C@@H](Cc2ccccc2)C(=O)N3)cc1 | > 1 µM |
